- System tested: unphosphorylated VEGF-R2Δ50 (FLVK) (Homo sapiens, UniProt P35968, DEL940-989/E990V)
- Construct: VEGF-R2Δ50 contains residues 806-939 and 990-1171; made in house; host or cells: baculovirus/insect cell system
- Sequence (P35968 with tags, fused parts or gaps DEL940-989/E990V limits assumed): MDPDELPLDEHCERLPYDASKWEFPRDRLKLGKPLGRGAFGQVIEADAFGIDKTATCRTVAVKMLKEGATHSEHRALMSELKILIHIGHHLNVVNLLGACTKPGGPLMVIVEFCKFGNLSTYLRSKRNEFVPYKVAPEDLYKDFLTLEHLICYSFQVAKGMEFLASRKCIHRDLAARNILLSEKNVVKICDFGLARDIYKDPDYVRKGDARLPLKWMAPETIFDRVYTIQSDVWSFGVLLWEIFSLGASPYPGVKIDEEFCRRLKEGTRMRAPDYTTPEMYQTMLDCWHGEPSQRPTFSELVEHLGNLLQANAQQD
- Run description: VEGF-R2 coupled spectrophotometric assay, unphosphorylated construct (FLVK)
- Type: biochemical
- Condition label: percent inhibition at 50 nM
Measured parameter: inhibition at 0.05 µM (%)

1. CNC(=O)n1c(C)cc2c(F)c(Oc3ccnc4cc(C(=O)N5CCC[C@H]5CO)sc34)ccc21 :: 100
2. CNC(=O)n1c(C)cc2cc(Nc3cccc4cc(C(=O)N5C[C@H](OC)C[C@H]5CO)sc34)ccc21 :: 57
3. C#CCNC(=O)n1c(C)cc2cc(Oc3ccnc4cc(C(=O)N5C[C@@H](O)[C@@H](O)C5)sc34)ccc21 :: 99
4. CNC(=O)n1c(C)cc2cc(Oc3ccnc4cc(C(=O)N5CC(F)(F)C[C@H]5CO)sc34)ccc21 :: 81
5. Cc1cc2cc(Nc3ccnc4cc(C(=O)N5CCC[C@@H]5CO)sc34)ccc2n1C(=O)NC1CC1 :: 98
6. CNC(=O)n1c(C)cc2cc(Nc3ccnc4cc(C(=O)N5CC[C@@H](O)C5)sc34)ccc21 :: 94
7. Cc1cc2c(F)c(Oc3ccnc4cc(C(=O)N5CCC[C@H]5CO)sc34)ccc2n1C(=O)NC1CC1 :: 96
8. C#CCNC(=O)n1c(C)cc2cc(Nc3ccnc4cc(C(=O)N5CCC[C@@H]5COC)sc34)ccc21 :: 96
9. CNC(=O)n1c(C)cc2c(F)c(Oc3ccnc4cc(C(=O)N5CC[C@H](OC)C5)sc34)ccc21 :: 100
10. CNC(=O)n1c(C)c(Cl)c2c(F)c(Oc3ccnc4cc(C(=O)N5CC[C@H](O)C5)sc34)ccc21 :: 99
11. C#CCNC(=O)n1c(C)cc2cc(Oc3ccnc4cc(C(=O)N5CC[C@H](O)C5)sc34)ccc21 :: 97
12. CCNC(=O)n1c(C)cc2cc(Oc3ccnc4cc(C(=O)N5CC[C@H](OC)C5)sc34)ccc21 :: 99
13. CNC(=O)n1c(C)cc2cc(Oc3ccnc4cc(C(=O)N5C[C@H](O)[C@@H](O)C5)sc34)ccc21 :: 99
14. C#CCNC(=O)n1c(C)cc2cc(Oc3ccnc4cc(C(=O)N5CC[C@H](OC)C5)sc34)ccc21 :: 95
15. CO[C@H]1CCN(C(=O)c2cc3nccc(Oc4ccc5c(c4)cc(C)n5C(=O)NCCCCO)c3s2)C1 :: 89
